- experimental-target: Phenylethanolamine N-methyltransferase (Homo sapiens)
- test-description: Confirmatory Screen for Target Class Profiling of Small Molecule Inhibitors of Methyltransferases (AID 1745852)
- reported-conditions: MTase-Glo luminescence, SAH detection, recombinant enzyme; measured here: PNMT max response; stronger effect = lower value
Each entry below carries its reported activity.

Consider the worked cases shown below.
CC[C@@H](CO)NC(=O)[C@@H]1C=C2c3cccc4c3c(cn4C)C[C@H]2N(C)C1; -4.59%
CC(C)=CCOc1c2occc2cc2ccc(=O)oc12; -3.85%
CC[N+](CC)(CC)CC; 4.2%
N#CC(C#N)=Cc1ccc(O)c(O)c1; -1.74%

Request: Complete the entry with activity for Nc1ccncc1
Result: -0.809%

###

- test-description: qHTS of pediatric cancer cell lines to identify multiple opportunities for drug repurposing: Confirmatory screen for SK-N-MC cells (AID 1347111);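 also: cells exposed to compound for 48 h before the readout; nearly all actives have a fitted effect of over 70% in size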
- reported-conditions: SK-N-MC cell viability; series mostly up to 45.9 µM
Records with an inconclusive call do not appear. Active and inactive are the calls of the source. The call rests on the fitted dose curve; in most records, active means well fitted cell-killing curve with a large enough effect; inconclusive means small, poorly fitted or top-dose-only effect; inactive means no such curve, though single readings can be large or run the other way.
Give your call using only these classes: Y (active), N (inactive)

O=c1[nH]c2ccccc2n1CCCN1CCC(n2c(=O)[nH]c3cc(Cl)ccc32)CC1; Y

Request: // param item: O=P1(NCCCl)OCCCN1CCCl (centres undefined) ; yields the recorded call
Result: N

Request: // param item: C[C@@H]1[C@@H](C(=O)C[C@H]2O[C@@H]3O[C@]4(C)CC[C@@H]5[C@H](C)CC[C@@H]([C@H]2C)[C@@]35OO4)O[C@@H]2O[C@]3(C)CC[C@H]4[C@H](C)CC[C@@H]1[C@@]24OO3 ; yields the recorded call
Result: Y

Request: // param item: N[C@@H](Cc1ccc(N(CCCl)CCCl)cc1)C(=O)O ; yields the recorded call
Result: Y

###

- test-description: Quantitative High-Throughput drug screen in 47 multiple myeloma cell lines against the NCATS MIPE library collection: KMS21BM_JCRB cell viability assay (AID 1918974)
- reported-conditions: ATP luminescence, 48 h; series mostly up to 45.8 µM
Inconclusive results are not listed. Calls of active or inactive are those of the source. Calls follow the shape of the dose curve; as a rule, active = well fitted cell-killing curve with a large enough effect; inconclusive = small, poorly fitted or top-dose-only effect, or effect the other way; inactive = no such curve, though single readings can be large or run the other way.
Give your call using only these classes: active, inactive

Request: // param item: CN(C)CCc1ccc(O)cc1 ; yields the recorded call
Result: inactive

Request: // param item: Cn1cc(C2=C(c3cn(C4CCN(Cc5ccccn5)CC4)c4ccccc34)C(=O)NC2=O)c2ccccc21 ; yields the recorded call
Result: active

Request: // param item: O=P1(NCCCl)OCCCN1CCCl (centres undefined) ; yields the recorded call
Result: active

Request: // param item: O=c1[nH]c2ccccc2n1CCCN1CCC(n2c(=O)[nH]c3cc(Cl)ccc32)CC1 ; yields the recorded call
Result: active

###

- experimental-target: Glutathione peroxidase 1 (Homo sapiens)
- test-description: Primary qHTS Assay for Inhibitors of Recombinant Selenoprotein Glutathione Peroxidase 1 (GPX1) (AID 1845191); also: nearly all actives have a fitted effect of over 65% in size
- reported-conditions: recombinant GPX1, GR-coupled NADPH fluorescence, 15 min; series mostly up to 48.8 µM
Inconclusive results are not listed. Activity calls are given as the source filed them. Calls come from the whole dose curve; as a rule, active = well fitted inhibition curve with a large enough effect; inconclusive = small, poorly fitted or top-dose-only effect; inactive = flat fitted curve, though single readings scatter.
experimental-readout: outcome

Consider the worked cases shown below.
CCC(C(N)=O)N1CCCC1=O (stereo unspecified); inactive
CCC1(C2=NCCN2)Cc2ccccc2O1 (stereo unspecified); inactive
CCC(COC(=O)c1cc(OC)c(OC)c(OC)c1)(c1ccccc1)N(C)C (stereo unspecified); inactive
CN1CCN(C(=O)O[C@H]2c3nccnc3C(=O)N2c2ccc(Cl)cn2)CC1; inactive
CCN(CC)C(=O)N[C@@H]1C=C2c3cccc4[nH]cc(c34)C[C@@H]2N(C)C1; inactive

From here, focus on the item given below.
Request: Complete the entry with outcome for CC(C)CC(N(C)C)C1(c2ccc(Cl)cc2)CCC1 (stereo unspecified)
Result: inactive
